# credit: patent US20040034104A1

{"SMILES": "O=C(O)COc1ccccc1C1CCN(CCC(C(=O)N2CCCC2)(c2ccccc2)c2ccccc2)CC1", "UNIT_OF_MEASUREMENT": "°C", "melting point": 239}
{"SMILES": "CN(C)C(=O)C(CCN1CCC(c2ccccc2OCC(=O)O)CC1)(c1ccccc1)c1ccccc1", "UNIT_OF_MEASUREMENT": "°C", "melting point": 202}
{"SMILES": "CN(C)C(=O)C(CCN1CC=C(c2ccccc2OCC(=O)O)CC1)(c1ccccc1)c1ccccc1", "UNIT_OF_MEASUREMENT": "°C", "melting point": 135}
{"SMILES": "CCOC(=O)COc1ccccc1C1=CCN(CCC(C(=O)N(C)C)(c2ccccc2)c2ccccc2)CC1", "UNIT_OF_MEASUREMENT": "°C", "melting point": 147}
